Test: TNF-a-driven NF-kB reporter inhibitors, primary screen, selectivity assay for NOD1/NOD2 signaling inhibitor project, cell-based, HEK293T NF-kB-Luc, luminescence (AID 1852)
Conditions: TNF-a induced, 14 h, at 4 µM, active compounds read high
Out of some 2,500 compounds screened, about 1,100 (44%) were called active. The set was probably picked from earlier hits. Some of the results follow.
Listed here are compounds together with their documented inhibition.
API: value field is a number in %; no unit string.

Would you please look over these solved cases?
# STRUCTURE_AS_SMILES, inhibition [%]
measured = [
    ("Cc1sc2ncnc(Sc3nnnn3-c3ccccc3)c2c1C", 89.8),
    ("COc1ccc(NC(=O)CN2CCc3ccccc3C2)c([N+](=O)[O-])c1", -10.5),
    ("Cc1ccccc1NC(=O)COC(=O)c1ccc(S(C)(=O)=O)c([N+](=O)[O-])c1", 13),
]

Read off the recorded inhibition for Cc1ccccc1-n1nnnc1Sc1nnnn1-c1ccccc1
75.4

Read off the recorded inhibition for Cn1nnnc1Sc1ncnc2scc(-c3ccccc3)c12
22.8

Read off the recorded inhibition for Cc1sc2ncnc(Sc3nnnn3-c3ccc(Cl)cc3)c2c1C
87

* * *

Listed here are molecules together with their documented inhibition.
Experiment: TNF-a-driven NF-kB reporter inhibitors, primary screen, selectivity assay for NOD1/NOD2 signaling inhibitor project, cell-based, HEK293T NF-kB-Luc, luminescence (AID 1852)
Details: TNF-a induced, 14 h, at 4 µM, active compounds read high
Out of some 2,500 compounds screened, about 1,100 (44%) were called active. The set was probably picked from earlier hits. The list shows a part of the results.
API: value field is a number in %; no unit string.

# STRUCTURE_AS_SMILES, PROPERTY, MEASUREMENT_UNIT, RESULT
measured = [
    ("Cc1scc(C(=O)N/N=C/c2ccc([N+](=O)[O-])o2)c1C", "inhibition", "%", 72),
]

Read off the recorded inhibition for O=C(N/N=C/c1ccc([N+](=O)[O-])o1)c1ccccc1NS(=O)(=O)c1cccs1
61.1

* * *

Test: TNF-a-driven NF-kB reporter inhibitors, primary screen, selectivity assay for NOD1/NOD2 signaling inhibitor project, cell-based, HEK293T NF-kB-Luc, luminescence (AID 1852)
Details: TNF-a induced, 14 h, at 4 µM, active compounds read high
In all, about 2,500 compounds went through this assay and about 1,100 (44%) were called active. So high a share suggests a set chosen from earlier hits. This is one part of the list.
# binning rule on inhibition: low value (below 40%), medium value (40% to below 60%), high value (60% or more)

# COMPOUND, ASSIGNED_LABEL
records = [
    ("Cc1ccc(NC(=O)CN(c2ccc(Cl)cc2)S(=O)(=O)c2cc([N+](=O)[O-])ccc2Cl)c(C)c1", "low value"),
]

State the class of the compound shown: Cc1ccc2c(c1)-c1ncc(C(=O)c3cc(Br)ccc3O)cc1CO2
low value

State the class of the compound shown: Cc1sc2nc(CSc3ccccc3)nc(N3CCC(C(N)=O)CC3)c2c1C
medium value

State the class of the compound shown: O=C(C1CCC(CNS(=O)(=O)c2cccs2)CC1)N1CCN(c2ccc(Cl)cc2)CC1 (stereo not drawn)
high value

State the class of the compound shown: Cc1cc2nc(-c3ccc(SCc4ccccn4)nc3)[nH]c2cc1C
high value

State the class of the compound shown: COc1ccccc1NC(=O)CSc1nc2sc(C)c(C)c2c(=O)n1C
low value

State the class of the compound shown: Cc1nc(N2CCN(c3ccccc3O)CC2)c2c(-c3ccccc3)csc2n1
low value

State the class of the compound shown: CCOc1ccc(-c2nc(CSCC(=O)N3CCN(c4cccc(OC)c4)CC3)c(C)o2)cc1
medium value

State the class of the compound shown: Cc1nc(N2CCN(C(=O)COc3ccccc3)CC2)c2c(C)c(C)sc2n1
low value

State the class of the compound shown: O=C(CCCc1nc(-c2ccc(Cl)cc2)no1)NC1CCCC1
medium value

State the class of the compound shown: O=C(Nc1ccc2nc3n(c(=O)c2c1)CCCCC3)c1cc([N+](=O)[O-])ccc1F
low value

State the class of the compound shown: Cc1nc2ccc(NC(=O)c3cccc(S(=O)(=O)N(C)c4ccccc4)c3)cc2s1
medium value

State the class of the compound shown: COc1ccc(S(=O)(=O)N2CCCC(C(=O)NCc3ccncc3)C2)cc1Cl (stereo not drawn)
low value

* * *

Test: TNF-a-driven NF-kB reporter inhibitors, primary screen, selectivity assay for NOD1/NOD2 signaling inhibitor project, cell-based, HEK293T NF-kB-Luc, luminescence (AID 1852)
Details: TNF-a induced, 14 h, at 4 µM, active compounds read high
Out of some 2,500 compounds screened, about 1,100 (44%) were called active. So high a share suggests a set chosen from earlier hits. The list shows a part of the results.
Everything with inhibition lower than 80% is false (0); everything else, including exactly 80%, is true (1).

Field: example entries. Status: answers known.
# COMPOUND, ASSIGNED_LABEL
measured = [
    ("CN(Cc1nccs1)C(=O)c1cc(COc2cccc3cnccc23)on1", "false (0)"),
    ("Cc1cccc(N2CCN(C(=O)C3CCN(c4ncnc5c4nc4n5CCCCC4)CC3)CC2C)c1 (configuration not stated)", "false (0)"),
    ("Cc1cccc2cc(/C=N/NC(=O)c3ccccc3O)c(Cl)nc12", "false (0)"),
    ("Cc1ccc(Cl)cc1NC1=C/C(=N\\S(=O)(=O)c2cccs2)c2ccccc2C1=O", "true (1)"),
    ("Cc1cccc(NC(=O)C2CCN(S(=O)(=O)c3ccc4c(c3)NC(=O)CO4)CC2)c1", "false (0)"),
    ("CN(Cc1cccnc1)C(=O)c1cc(COc2ccc3ncccc3c2)on1", "false (0)"),
    ("COc1cccc(CN(C)C(=O)c2cc(COc3ccc4ncccc4c3)on2)c1", "false (0)"),
    ("COc1cccc(N2CCN(c3ncnc4c3[nH]c3ccccc34)CC2C)c1 (configuration not stated)", "true (1)"),
]

Threshold query (inhibition >= 80%) on COc1cccc(/C=N/NC(=O)c2c(C)nc3ccc(Cl)cn23)c1O
false (0)

Threshold query (inhibition >= 80%) on COc1ccc(C(=O)c2c(C(F)(F)F)oc3c2C(=O)c2ccccc2C3=O)cc1
true (1)

Threshold query (inhibition >= 80%) on COc1ccc(NC(=O)c2c(Nc3ccccc3)sc(C(=O)c3ccc(F)cc3)c2N)cc1
false (0)

Threshold query (inhibition >= 80%) on COc1ccc(C(=O)c2c(C(F)(F)F)oc3c2C(=O)c2ccccc2C3=O)cc1OC
true (1)

* * *

Assay: TNF-a-driven NF-kB reporter inhibitors, primary screen, selectivity assay for NOD1/NOD2 signaling inhibitor project, cell-based, HEK293T NF-kB-Luc, luminescence (AID 1852)
Details: TNF-a induced, 14 h, at 4 µM
Out of some 2,500 compounds screened, about 1,100 (44%) were called active.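 How the source made its calls: active means inhibition above 50% at 4 µM in the single-point screen; inactive means inhibition of 50% or less.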 So high a share suggests a set chosen from earlier hits. This is one part of the list.
Hi! Could you answer with just one of these? t (active), f (inactive)

Field: example entries. Status: answers known.
# COMPOUND, ASSIGNED_LABEL
rows = [
    ("O=C(NC1CCCCC1)N1CCN(c2nc(-c3ccccc3)cs2)CC1", "f"),
    ("CCCc1nnc(NC(=O)c2nc(S(=O)(=O)Cc3cccc(C)c3)ncc2Cl)s1", "t"),
    ("O=C(NC(=S)N1CCN(c2ccc(Cl)cc2[N+](=O)[O-])CC1)c1cccs1", "t"),
    ("Cc1[nH]c(=O)c(C(=O)/C=C/c2ccccc2F)c2c1CCCC2", "t"),
    ("O=C(Nc1ccc(Oc2cccc(C(F)(F)F)c2)nc1)c1cccs1", "f"),
]

Answer briefly: the call reported for O=c1cc(CSc2ccc(Cl)cc2)nc(-c2ccccn2)[nH]1 in this assay.
t

Answer briefly: the call reported for COc1ccc(C(=O)c2ccccc2)c2c(O)ccc(C(=O)c3ccccc3)c12 in this assay.
t

Answer briefly: the call reported for CCCc1ccc(-c2c(C)sc(NC(=O)c3ccnn3C)c2C#N)cc1 in this assay.
t

* * *

Assay: TNF-a-driven NF-kB reporter inhibitors, primary screen, selectivity assay for NOD1/NOD2 signaling inhibitor project, cell-based, HEK293T NF-kB-Luc, luminescence (AID 1852)
Details: TNF-a induced, 14 h, at 4 µM, active compounds read high
The whole screen tested about 2,500 compounds, of which about 1,100 (44%) were called active. The set was probably picked from earlier hits. This is one part of the list.
Everything with inhibition lower than 30% is Condition not met; everything else, including exactly 30%, is Condition met.

Field: example entries. Status: answers known.
# STRUCTURE_AS_SMILES, ASSIGNED_LABEL
rows = [
    ("CCN(CC)S(=O)(=O)c1ccc(C(=O)Nc2ccc(Cc3ccncc3)cc2)cc1", "Condition met"),
    ("O=C(Nc1ccc(S(=O)(=O)N2CCCCC2)cc1)c1ccc(CN2CCc3ccccc3C2)cc1", "Condition met"),
    ("Cc1ccc(C(=O)Nc2sc3c(c2C(=O)O)CCCC3)o1", "Condition not met"),
    ("Cc1c(C(=O)Nc2nc3ccccc3[nH]2)oc2ccc(Br)cc12", "Condition met"),
    ("Cc1ccc(S(=O)(=O)c2cc3cc(Br)ccc3oc2=O)cc1", "Condition met"),
    ("O=C(c1ccccc1)c1ccc2nc(-c3ccc(NC(=O)c4ccccc4Br)cc3)[nH]c2c1", "Condition not met"),
]

Threshold query (inhibition >= 30%) on NC(=O)c1c(NC(=O)CCCC(=O)O)sc2c1CCCCCC2
Condition not met
